Listed compounds paired with reported Z-score
system: Human IP6K1 (Homo sapiens, UniProt Q92551)
Construct: GST (N, cleaved yes); made in house; host or cells: C43 E. coli, pGEX-6P-2
Sequence (Q92551 whole entry): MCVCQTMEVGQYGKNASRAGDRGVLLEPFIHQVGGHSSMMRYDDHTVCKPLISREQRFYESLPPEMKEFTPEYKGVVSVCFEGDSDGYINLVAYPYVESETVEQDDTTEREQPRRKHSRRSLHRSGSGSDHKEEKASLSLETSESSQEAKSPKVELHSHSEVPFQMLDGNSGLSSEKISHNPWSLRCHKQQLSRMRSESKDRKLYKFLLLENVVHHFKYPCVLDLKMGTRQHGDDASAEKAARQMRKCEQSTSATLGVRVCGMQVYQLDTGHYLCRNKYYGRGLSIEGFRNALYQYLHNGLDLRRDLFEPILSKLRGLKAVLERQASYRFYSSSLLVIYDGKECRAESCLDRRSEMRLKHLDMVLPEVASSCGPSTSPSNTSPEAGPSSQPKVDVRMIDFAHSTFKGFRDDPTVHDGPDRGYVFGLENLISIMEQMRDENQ
experimentDescription: IP6K1 high-throughput screen of the Sigma LOPAC (ADP-Glo Max, single point);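 note: final compound concentration 10µM in 5% DMSO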
Assay type: biochemical
conditionNotes: Sigma LOPAC single-point screen; Z-score from plate average and StDev
Counter-ions that a name gives are not always drawn.

compound: O=C1CC2(CCCC2)CC(=O)N1CCCCN1CCN(c2ncccn2)CC1 [Buspirone hydrochloride]
Z-score: 0.5248
--
compound: CN1CCN(c2nc3cc(C(F)(F)F)ccc3n3cccc23)CC1.O=C(O)/C=C\C(=O)O [CGS-12066A maleate]
Z-score: 0.6458
--
compound: CSc1ccc2c(c1)C(N1CCN(C)CC1)Cc1ccccc1S2 (stereo not drawn) [Methiothepin mesylate]
Z-score: 0.6997
--
compound: C[C@@]12N[C@@H](Cc3ccccc31)c1ccccc12.O=C(O)/C=C\C(=O)O [(-)-MK-801 hydrogen maleate]
Z-score: 0.6868
--
compound: CC(=O)O[C@H]1C[C@@H]2CC[C@@H]3[C@H](CC[C@@]4(C)[C@H]3C[C@H]([N+]3(C)CCCCC3)[C@@H]4OC(C)=O)[C@@]2(C)C[C@@H]1[N+]1(C)CCCCC1 [Pancuronium bromide]
Z-score: 0.7861
--
compound: C[C@H](Cc1ccccc1)Nc1ncnc2c1ncn2[C@@H]1O[C@H](CO)[C@@H](O)[C@H]1O [R(-)-N6-(2-Phenylisopropyl)adenosine]
Z-score: 0.6838
--
compound: CC(C)(C)C1(O)CCN2CC3c4ccccc4CCc4cccc(c43)C2C1.Cl (racemic) [(±)-Butaclamol hydrochloride]
Z-score: 0.513
--
compound: CCc1c(C(=O)OC)ncc2[nH]c3cc(OC)c(OC)cc3c12
Z-score: 0.3735
--
compound: Cc1scc2c1N(C(=O)CN1CCN(C)CC1)c1ccccc1NC2=O [Telenzepine dihydrochloride]
Z-score: 0.3937

###

system: Human IP6K1 (Homo sapiens, UniProt Q92551)
Construct: GST (N, cleaved yes); made in house; host or cells: C43 E. coli, pGEX-6P-2
experimentDescription: IP6K1 high-throughput screen of the Sigma LOPAC (ADP-Glo Max, single point);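 note: final compound concentration 10µM in 5% DMSO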
Type: biochemical
conditionNotes: Sigma LOPAC single-point screen, ADP-Glo Max raw signal per well
Counter-ions that a name gives are not always drawn.
Reported Raw Signal values are given for each entry in this list.
readoutType: Raw Signal

molecule: CCN(CC)CCCC(C)Nc1c2ccc(Cl)cc2nc2ccc(OC)cc12 (stereo not shown) [Quinacrine dihydrochloride]
readoutType: Raw Signal
valueMeasured: 60550
//
molecule: COc1cc2c(cc1C(F)(F)F)N(C(=O)Nc1cc(F)cc(-c3cccnc3)c1)CC2 [SB 228357]
readoutType: Raw Signal
valueMeasured: 58844
//
molecule: COc1ccccc1N1CCN(CCN(C(=O)c2ccc(I)cc2)c2ccccn2)CC1.Cl [p-MPPI hydrochloride]
readoutType: Raw Signal
valueMeasured: 60360
//
molecule: O=C(O)CCCCC1CCSS1 (racemic) [(±)-alpha-Lipoic Acid]
readoutType: Raw Signal
valueMeasured: 59328
//
molecule: CNCC[C@H](Oc1ccc(C(F)(F)F)cc1)c1ccccc1.Cl [S-(+)-Fluoxetine hydrochloride]
readoutType: Raw Signal
valueMeasured: 58446
//
molecule: CC(=O)NCCc1ccc(O)c(O)c1.O [N-Acetyldopamine monohydrate]
readoutType: Raw Signal
valueMeasured: 60782
//
molecule: O=C(O)CCC(C(=O)O)N1C(=O)c2ccccc2C1=O [L-Glutamic acid, N-phthaloyl-]
readoutType: Raw Signal
valueMeasured: 59775
//
molecule: C/C(O)=C(\C#N)C(=O)Nc1cc(Br)ccc1Br [LFM-A13]
readoutType: Raw Signal
valueMeasured: 58610
//
molecule: COC(=O)C1=C(C)NC(C)=C(C(=O)OC)C1c1ccccc1[N+](=O)[O-] [Nifedipine]
readoutType: Raw Signal
valueMeasured: 59653
//
molecule: CN(Cc1cnc2nc(N)nc(N)c2n1)c1ccc(C(=O)N[C@@H](CCC(=O)O)C(=O)O)cc1 [(-)Amethopterin]
readoutType: Raw Signal
valueMeasured: 61362
//
molecule: Br.Br.NC(N)=NCCSSCCN=C(N)N [Guanidinoethyl disulfide dihydrobromide]
readoutType: Raw Signal
valueMeasured: 61778
//
molecule: FC(F)(F)c1ccccc1-n1ccnc1 [1-[2-(Trifluoromethyl)phenyl]imidazole]
readoutType: Raw Signal
valueMeasured: 60208
//
molecule: CC(NCCc1ccc(O)cc1)C(O)c1ccc(O)cc1 (stereo not shown) [Ritodrine hydrochloride]
readoutType: Raw Signal
valueMeasured: 59316
//
molecule: CN1[C@@H]2CC[C@H]1C[C@@H](OC(c1ccccc1)c1ccccc1)C2 [Benztropine mesylate]
readoutType: Raw Signal
valueMeasured: 60233
//
molecule: CC(=O)O[C@H]1C(=O)[C@@]2(C)[C@H]([C@H](OC(=O)c3ccccc3)[C@]3(O)C[C@H](OC(=O)[C@H](O)[C@@H](NC(=O)c4ccccc4)c4ccccc4)C(C)=C1C3(C)C)[C@]1(OC(C)=O)CO[C@@H]1C[C@@H]2O [Taxol]
readoutType: Raw Signal
valueMeasured: 58493
//
molecule: CCN(CC)CCOC(=O)c1ccc(N)cc1 [Procaine hydrochloride]
readoutType: Raw Signal
valueMeasured: 61379
//
molecule: NC(=O)OCC(COC(N)=O)c1ccccc1 [Felbamate]
readoutType: Raw Signal
valueMeasured: 58283
//
molecule: COc1cc2c(CCNC(C)=O)c[nH]c2cc1Cl [6-Chloromelatonin]
readoutType: Raw Signal
valueMeasured: 61765
//
molecule: Cc1cc(O)c2c(c1)C(=O)c1cc(O)cc(O)c1C2=O [Emodin]
readoutType: Raw Signal
valueMeasured: 61234

###

system: Human IP6K1 (Homo sapiens)
Construct: GST (N, cleaved yes); made in house; host or cells: C43 E. coli, pGEX-6P-2
experimentDescription: IP6K1 high-throughput screen of the Sigma LOPAC (ADP-Glo Max, single point);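 note: final compound concentration 10µM in 5% DMSO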
Type: biochemical
conditionNotes: Sigma LOPAC single-point screen; Z-score from plate average and StDev

compound: O=C(c1cc(O)c(O)c([N+](=O)[O-])c1)c1ccccc1F
Z-score: 0.4855
//
compound: CC(O)C(C)OC(=O)[C@@H]1C[C@@H]2c3cccc4c3c(cn4C(C)C)C[C@H]2N(C)C1.O=C(O)/C=C\C(=O)O (stereo partly drawn) [LY-53,857 maleate]
Z-score: 0.6514
//
compound: COc1ccccc1N1CCN(CCCNc2c(C)c(=O)n(C)c(=O)n2C)CC1
Z-score: 1.172

###

Quick reference: Raw Signal of the listed items.
system: Human IP6K1 (Homo sapiens, UniProt Q92551)
Construct: GST (N, cleaved yes); made in house; host or cells: C43 E. coli, pGEX-6P-2
experimentDescription: IP6K1 high-throughput screen of the Sigma LOPAC (ADP-Glo Max, single point);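 note: final compound concentration 10µM in 5% DMSO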
Assay type: biochemical
conditionNotes: LOPAC single-point screen, ADP-Glo Max raw signal per well
Where a name gives a salt, the structure may show the parent alone.
readoutType: Raw Signal

compound: COC(=O)N1CCN(C(=O)Cc2ccc(Cl)c(Cl)c2)C(CN2CCCC2)C1.O=C(O)/C=C/C(=O)O (stereo not drawn) [GR-89696 fumarate]
valueMeasured: 54440
//
compound: CC(=O)[C@H]1CC[C@H]2[C@@H]3CC[C@H]4C[C@H](O)CC[C@]4(C)[C@H]3CC[C@]12C
valueMeasured: 55941
//
compound: CCCCNc1ccc(C(=O)OCCN(C)C)cc1 [Tetracaine hydrochloride]
valueMeasured: 56522
//
compound: O=c1c2ccccc2[nH]c(=S)n1CCN1CCC(=C(c2ccc(F)cc2)c2ccc(F)cc2)CC1
valueMeasured: 55319
//
compound: C[C@@H](N)[C@H]1CC[C@H](C(=O)Nc2ccncc2)CC1.Cl.Cl [Y-27632 dihydrochloride]
valueMeasured: 53228
//
compound: Br.Br.N=C(N)SCCN
valueMeasured: 59514
//
compound: CC1=C(CC(=O)O)c2cc(F)ccc2/C1=C\c1ccc(S(C)(=O)=O)cc1
valueMeasured: 56423
//
compound: COCc1nc2c([nH]1)c(=O)n(C)c(=O)n2CC(C)C
valueMeasured: 51997
//
compound: CSc1ccc2c(c1)N(CCC1CCCCN1C)c1ccccc1S2 (stereo not drawn) [Thioridazine hydrochloride]
valueMeasured: 57676
//
compound: NCCCCN=C(N)N [Agmatine sulfate]
valueMeasured: 56032
//
compound: Cn1c(=O)c2[nH]cnc2n(C)c1=O.Cn1c(=O)c2[nH]cnc2n(C)c1=O.NCCN
valueMeasured: 57914
//
compound: C[C@]12CC[C@H](OS(=O)(=O)[O-])CC1=CC[C@@H]1[C@@H]2CC[C@]2(C)C(=O)CC[C@@H]12.[Na+] [Dehydroisoandrosterone 3-sulfate sodium]
valueMeasured: 55598

###

system: Human IP6K1 (Homo sapiens, UniProt Q92551)
Construct: GST (N, cleaved yes); made in house; host or cells: C43 E. coli, pGEX-6P-2
experimentDescription: IP6K1 high-throughput screen of the Sigma LOPAC (ADP-Glo Max, single point);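 note: final compound concentration 10µM in 5% DMSO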
Type: biochemical
conditionNotes: LOPAC single-point screen, ADP-Glo Max luminescence raw signal per well
Structures can show the parent of a compound that is named as a salt.

compound: Cc1ccccc1/C=C/C1=NCCN1 [Metrazoline oxalate]
Raw Signal: 51543
--
compound: OCc1cc(C(O)CNCCCCCCOCCCCc2ccccc2)ccc1O (stereo not drawn) [Salmeterol]
Raw Signal: 52718
--
compound: CN1CCC(c2c[nH]c3ccc(O)cc23)CC1.O=C(O)/C=C\C(=O)O [BRL 54443 maleate]
Raw Signal: 53701
